experiment: Lipid clearance: % dose remaining in mouse liver 6 h and 24 h after administration of nanoparticle compositions; type: in vivo, CD-1 mice; conditions: 6 h, CD-1 mice
Could you please mark criterion met for values of % Dose remaining 6 h CD-1 mice below 60% and criterion not met for values at or above it?

compound=CCCCCCCCCN(CCCCCCCCC)CCC1CCN(C(=O)CN(CCCCCCCCC)CCN(CCCCCCCCC)CCCCCCCCC)CC1 assigned_category="criterion met"
compound=CCCCCCCCCN(CCCCCCCCC)CCN(CCCCCCCCC)CC(=O)N1CCN(C(=O)CN(CCCCCCCCC)CCCC(=O)OCCCCC)CC1 assigned_category="criterion met"
compound=CCCCCCCCCN(CCCCCCCC(=O)OC)CCN(CCCCCCCCC)CC(=O)N1CCN(C(=O)CN(CCCCCCCCC)CCCCCCCCC)CC1 assigned_category="criterion met"
compound=CCCCCCCCCN(CCCCCCCCC)CCN(CCCCCCCCC)CC(=O)N1CCN(C(=O)CN(CCCCCCCCC)CCCCCCCC(=O)OC)CC1 assigned_category="criterion met"
compound="CCCCCC=CCC=CCCCCCCCCC(CCCCCCCCC=CCC=CCCCCC)OC(=O)CCCN(C)C (stereo not drawn) [MC3, reference compound]" assigned_category="criterion not met"
compound=CCCCCCCCCN(CCCCCCCCC)CCN(CCCCCCCCC)CCC1CCN(C(=O)CN(CCCCCCCCC)CCCCCCCCC)CC1 assigned_category="criterion met"

###

tested on: modified luciferase expression; assay: Expression of Luc in different organs (liver, lung, spleen, femur) 6 hours after intravenous administration; assay type: in vivo; conditions: Table 17-3, mice, i.v., 0.5 mpk, liver
Parameter: Total Flux Liver. Scope: all listed entries.
measured-parameter: Total Flux Liver

molecule=CCCCCCCCCCCCN(CCCO)CCCCCCCCCCCC value_reported=4.94E+05
molecule=CCCCC/C=C\C/C=C\CCCCCCCCN(CCCCCCCC/C=C\C/C=C\CCCCC)CCOC value_reported=1.39E+06
molecule=CCCCC/C=C\C/C=C\CCCCCCCCN(CCO)CCCCCC value_reported=6.42E+04
molecule=CCCCCCCCCCCCN(CCO)CCCCCCCCCCCC value_reported=5.06E+05
molecule=CCCCCCCC/C=C\CCCCCCCCN(CCO)CCCCCCCC/C=C\CCCCCCCC value_reported=2.27E+08
molecule=CCCCCCCCCCCCN(CCCCO)CCCCCCCCCCCC value_reported=3.56E+05
molecule="CCCCCC=CCC=CCCCCCCCCC(CCCCCCCCC=CCC=CCCCCC)OC(=O)CCCN(C)C (stereo not shown) [MC3, reference compound]" value_reported=2.75E+09
molecule=CCCCCCCCCN(CCO)CCCCCCCCC value_reported=2.00E+05
molecule=CCCCCCCCCCCCCCN(CCO)CCCCCCCCCCCCCC value_reported=7.44E+04
molecule=CCCCC/C=C\C/C=C\CCCCCCCCN(CCO)CCCCCCCCC value_reported=2.51E+05
molecule=CCCCC/C=C\C/C=C\CCCCCCCCN(CCO)CCCCCCCCCCCCCC value_reported=1.17E+08
molecule=CCCCC/C=C\C/C=C\CCCCCCCCN(CCO)CCCCCCCCCCCCCCCCCC value_reported=2.16E+07
molecule=CCCCC/C=C\C/C=C\CCCCCCCCN(CCO)CCCCCCCCCCCC value_reported=8.00E+07
